details: bacteroides fragilis, 12 h, 2 µM
Description: The drug is tested on Bacteroides fragilis strain: 3397 (T10) for biotransformation. The drug concentrations were measured before and after a 12-h incubation by liquid-chromatography-coupled mass spectrometry (LC–MS)
Measurement kind: Bacterial Biotransformation

Compound	Bacterial Biotransformation
Cc1nc(Nc2ncc(C(=O)Nc3c(C)cccc3Cl)s2)cc(N2CCN(CCO)CC2)n1.O	Compound metabolized
O=C(O)COCCN1CCN(C(c2ccccc2)c2ccc(Cl)cc2)CC1 (stereo unspecified)	Compound metabolized
CS(=O)(=O)O.O.O.O.O=C1Cc2cc(CCN3CCN(c4nsc5ccccc45)CC3)c(Cl)cc2N1 [ZIPRASIDONE MESYLATE]	Compound NOT metabolized
CC(=O)OCC(=O)[C@@]12N=C(C)O[C@@H]1C[C@H]1[C@@H]3CCC4=CC(=O)C=C[C@]4(C)[C@H]3[C@@H](O)C[C@@]12C	Compound metabolized
C[C@@H]1CC[C@H]2[C@@H](C)C(=O)O[C@@H]3O[C@@]4(C)CC[C@@H]1[C@]32OO4	Compound metabolized

Report measured Bacterial Biotransformation; entry is CC(C(=O)O)c1ccc2c(c1)Cc1cccnc1O2 (stereo unspecified)
Compound metabolized

Report measured Bacterial Biotransformation; entry is CCCCCNC(=N)N/N=C/c1c[nH]c2ccc(OC)cc12.O=C(O)/C=C\C(=O)O [TEGASEROD MALEATE]
Compound NOT metabolized

Report measured Bacterial Biotransformation; entry is CCN(CC)CCOCCOC(=O)C1(c2ccccc2)CCCC1.O=C(O)CC(O)(CC(=O)O)C(=O)O [CARBETAPENTANE CITRATE]
Compound metabolized

Report measured Bacterial Biotransformation; entry is COc1ccc2[nH]c([S+]([O-])Cc3ncc(C)c(OC)c3C)nc2c1 (stereo unspecified)
Compound metabolized

Report measured Bacterial Biotransformation; entry is CC(CN(C)C)CN1c2ccccc2CCc2ccccc21.O=C(O)/C=C\C(=O)O (stereo unspecified) [TRIMIPRAMINE MALEATE]
Compound NOT metabolized

Report measured Bacterial Biotransformation; entry is `CCCc1nc(C(C)(C)O)c(C(=O)OCc2oc(=O)oc2C)n1Cc1ccc(-c2ccccc2-c2nnn[nH]2)cc1`
Compound metabolized

Report measured Bacterial Biotransformation; entry is Cc1ccccc1C(OCCN(C)C)c1ccccc1.O=C(O)CC(O)(CC(=O)O)C(=O)O (stereo unspecified) [ORPHENADRINE CITRATE]
Compound NOT metabolized

Report measured Bacterial Biotransformation; entry is `CN1CCN(C2=Nc3cc(Cl)ccc3Nc3ccccc32)CC1`
Compound NOT metabolized

Report measured Bacterial Biotransformation; entry is CC(NC(C)(C)C)C(=O)c1cccc(Cl)c1 (stereo unspecified)
Compound NOT metabolized

Report measured Bacterial Biotransformation; entry is O=C(Nc1ccccc1)OCC(CN1CCCCC1)OC(=O)Nc1ccccc1 (stereo unspecified)
Compound NOT metabolized

Report measured Bacterial Biotransformation; entry is `CNC(=C[N+](=O)[O-])NCCSCc1csc(CN(C)C)n1`
Compound NOT metabolized

Report measured Bacterial Biotransformation; entry is CN1CCOC(c2ccccc2)c2ccccc2C1 (stereo unspecified)
Compound NOT metabolized

###

assay: The drug is tested on Coprococcus comes strain: ATCC27758 for biotransformation. The drug concentrations were measured before and after a 12-h incubation by liquid-chromatography-coupled mass spectrometry (LC–MS); type: ADME; set-up: dose 2 uM, timepoint 0 vs 12 hours; settings: 2 µM
Measurement kind: Bacterial Biotransformation

See these solved cases before continuing.
Compound	Result
C=CCc1ccccc1OCC(O)CNC(C)C (stereo unspecified) [ALPRENOLOL]	Compound NOT metabolized
CC(=O)OCC(=O)NCCCOc1cccc(CN2CCCCC2)c1 [ROXATIDINE ACETATE]	Compound metabolized
NC12CC3CC(CC(C3)C1)C2 [AMANTADINE]	Compound NOT metabolized
CN(C)CC(c1ccc(O)cc1)C1(O)CCCCC1.O=C(O)CCC(=O)O (stereo unspecified) [DESVENLAFAXINE SUCCINATE]	Compound NOT metabolized
c1ccc2[nH]c(-c3cscn3)nc2c1 [THIABENDAZOLE]	Compound NOT metabolized
CN1CCN(C2=Nc3cc(Cl)ccc3Nc3ccccc32)CC1 [CLOZAPINE]	Compound NOT metabolized

Report measured Bacterial Biotransformation; entry is Fc1ccc([C@@H]2CCNC[C@H]2COc2ccc3c(c2)OCO3)cc1 [PAROXETINE]
Compound NOT metabolized

Report measured Bacterial Biotransformation; entry is C=CCN1CC[C@]23c4c5ccc(O)c4O[C@H]2C(=O)CC[C@@]3(O)[C@H]1C5 [NALOXONE]
Compound NOT metabolized

Report measured Bacterial Biotransformation; entry is CC(C)(C)NCC(O)COc1cccc2c1CC(O)C(O)C2 (stereo unspecified) [NADOLOL]
Compound NOT metabolized

Report measured Bacterial Biotransformation; entry is Cc1nc2n(c(=O)c1CCN1CCC(c3noc4cc(F)ccc34)CC1)CCCC2 [RISPERIDONE]
Compound metabolized

Report measured Bacterial Biotransformation; entry is COc1c(C)c2c(c(O)c1C/C=C(\C)CCC(=O)OCCN1CCOCC1)C(=O)OC2 [MYCOPHENOLATE MOFETIL]
Compound metabolized

Report measured Bacterial Biotransformation; entry is CCOC(=O)[C@H](CCc1ccccc1)N[C@@H](C)C(=O)N1[C@H](C(=O)O)C[C@H]2CCCC[C@@H]21 [TRANDOLAPRIL]
Compound NOT metabolized

Report measured Bacterial Biotransformation; entry is CC(Oc1c(Cl)cccc1Cl)C1=NCCN1 (stereo unspecified) [LOFEXIDINE]
Compound metabolized

Report measured Bacterial Biotransformation; entry is COc1ccc2c(c1OC)C(=O)O[C@@H]2[C@H]1c2c(cc3c(c2OC)OCO3)CCN1C [NOSCAPINE]
Compound metabolized

Report measured Bacterial Biotransformation; entry is COc1ccc2[nH]c([S+]([O-])Cc3ncc(C)c(OC)c3C)nc2n1 (stereo unspecified) [TENATOPRAZOLE]
Compound metabolized

Report measured Bacterial Biotransformation; entry is CN(C)C(=O)Oc1cccc([N+](C)(C)C)c1.[Br-] [NEOSTIGMINE BROMIDE]
Compound NOT metabolized

Report measured Bacterial Biotransformation; entry is Cc1ccc(S(=O)(=O)NC(=O)NN2CC3CCCC3C2)cc1 (stereo unspecified) [GLICLAZIDE]
Compound NOT metabolized

Report measured Bacterial Biotransformation; entry is COc1ccc(Cc2nccc3cc(OC)c(OC)cc23)cc1OC [PAPAVERINE]
Compound NOT metabolized

Report measured Bacterial Biotransformation; entry is COC(=O)[C@H](c1ccccc1Cl)N1CCc2sccc2C1.O=S(=O)(O)O [CLOPIDOGREL BISULFATE]
Compound NOT metabolized

Report measured Bacterial Biotransformation; entry is CCc1nc(N)nc(N)c1-c1ccc(Cl)cc1 [PYRIMETHAMINE]
Compound NOT metabolized

Report measured Bacterial Biotransformation; entry is CCCC1O[C@@H]2C[C@H]3[C@@H]4CCC5=CC(=O)C=C[C@]5(C)[C@H]4[C@@H](O)C[C@]3(C)[C@]2(C(=O)CO)O1 (stereo partly specified) [BUDESONIDE]
Compound NOT metabolized
